tested on: Mycolicibacterium fortuitum; test: Antimycobacterial activity against Mycobacterium fortuitum B; format: functional
List of MIC values.
Measurement Label: MIC (µg/mL)

| Molecule | Qualifier Sign | Reported Measurement |
| --- | --- | --- |
| O=c1nc(N2CCN(c3nccs3)CC2)sc2c([N+](=O)[O-])cc(C(F)(F)F)cc12 | = | 0.025 |
| O=c1nc(N2CCC(c3ccccc3)CC2)sc2c([N+](=O)[O-])cc(C(F)(F)F)cc12 | = | 0.0125 |
| O=c1nc(N2CCC(F)(F)CC2)sc2c([N+](=O)[O-])cc(C(F)(F)F)cc12 | > | 0.1 |
| COC(=O)C1CN(c2nc(=O)c3cc(C(F)(F)F)cc([N+](=O)[O-])c3s2)CCC12OC[C@H](C)O2 (stereo partly specified) | = | 0.0125 |
| C[C@H]1COC2(CCN(c3nc(=O)c4cc(C(F)(F)F)cc([N+](=O)[O-])c4s3)CC2)O1 | = | 0.00156 |
| O=c1nc(NCc2ccc3c(c2)OCCO3)sc2c([N+](=O)[O-])cc(C(F)(F)F)cc12 | = | 0.012 |
| CN(C)c1ccc(CN(C)c2nc(=O)c3cc(C(F)(F)F)cc([N+](=O)[O-])c3s2)cc1 | = | 0.00625 |
| Cc1ccc(CNc2nc(=O)c3cc(C(F)(F)F)cc([N+](=O)[O-])c3s2)n1C | = | 0.05 |
| COC(=O)[C@@H]1OC2(CCN(c3nc(=O)c4cc(C(F)(F)F)cc([N+](=O)[O-])c4s3)CC2)O[C@H]1c1ccccc1 | = | 0.00625 |
| CN(C(=O)CN1CCN(c2nc(=O)c3cc(C(F)(F)F)cc([N+](=O)[O-])c3s2)CC1)c1ccccc1 | = | 0.0125 |
| CCCOCC1COC2(CCN(c3nc(=O)c4cc(C(F)(F)F)cc([N+](=O)[O-])c4s3)CC2)O1 (stereo unspecified) | = | 0.0031 |

###

test system: Liver; test: Metabolic stability in mouse liver microsomes; format: ADME, Microsome
Measurement Label: Stability (%)

| Compound | Value Unit | Reported Measurement |
| --- | --- | --- |
| O=c1nc(N2CCC(F)(F)CC2)sc2c([N+](=O)[O-])cc(C(F)(F)F)cc12 | % | 80 |
| O=c1nc(N2CCN(c3nccs3)CC2)sc2c([N+](=O)[O-])cc(C(F)(F)F)cc12 | % | 13 |
| CCCOCC1COC2(CCN(c3nc(=O)c4cc(C(F)(F)F)cc([N+](=O)[O-])c4s3)CC2)O1 (stereo unspecified) | % | 9 |
| CN(C)c1ccc(CN(C)c2nc(=O)c3cc(C(F)(F)F)cc([N+](=O)[O-])c3s2)cc1 | % | 8 |
| CN(C(=O)CN1CCN(c2nc(=O)c3cc(C(F)(F)F)cc([N+](=O)[O-])c3s2)CC1)c1ccccc1 | % | 2 |
| CN(c1nc(=O)c2cc(C(F)(F)F)cc([N+](=O)[O-])c2s1)[C@H]1CCN(Cc2ccccc2)C1 | % | 7 |
| COC(=O)C1CN(c2nc(=O)c3cc(C(F)(F)F)cc([N+](=O)[O-])c3s2)CCC12OC[C@H](C)O2 (stereo partly specified) | % | 29 |
| O=c1nc(N2CCC(c3ccccc3)CC2)sc2c([N+](=O)[O-])cc(C(F)(F)F)cc12 | % | 75 |
| C[C@H]1COC2(CCN(c3nc(=O)c4cc(C(F)(F)F)cc([N+](=O)[O-])c4s3)CC2)O1 | % | 45 |
| O=c1nc(NCc2ccc3c(c2)OCCO3)sc2c([N+](=O)[O-])cc(C(F)(F)F)cc12 | % | 32 |
| Cc1ccc(CNc2nc(=O)c3cc(C(F)(F)F)cc([N+](=O)[O-])c3s2)n1C | % | 37 |

###

assay: Cytotoxicity against human HeLa cells after 72 hrs by methylene blue staining; type: cell-based

| Compound | CC50 at 72 h |
| --- | --- |
| CN(C)c1ccc(CN(C)c2nc(=O)c3cc(C(F)(F)F)cc([N+](=O)[O-])c3s2)cc1 | > 50 µM |
| COC(=O)[C@@H]1OC2(CCN(c3nc(=O)c4cc(C(F)(F)F)cc([N+](=O)[O-])c4s3)CC2)O[C@H]1c1ccccc1 | > 50 µM |
| O=c1nc(N2CCC(c3ccccc3)CC2)sc2c([N+](=O)[O-])cc(C(F)(F)F)cc12 | > 50 µM |
| C[C@H]1COC2(CCN(c3nc(=O)c4cc(C(F)(F)F)cc([N+](=O)[O-])c4s3)CC2)O1 | > 50 µM |
| O=c1nc(NCc2ccc3c(c2)OCCO3)sc2c([N+](=O)[O-])cc(C(F)(F)F)cc12 | 41 µM |
| CCCOCC1COC2(CCN(c3nc(=O)c4cc(C(F)(F)F)cc([N+](=O)[O-])c4s3)CC2)O1 (stereo unspecified) | 43 µM |

###

assay: Therapeutic index, ratio of CC50 for human HeLa cells to MIC for Mycobacterium smegmatis 700084; assay type: cell-based; details: read-out: TI

| Item Smiles | selectivity ratio |
| --- | --- |
| CN(C)c1ccc(CN(C)c2nc(=O)c3cc(C(F)(F)F)cc([N+](=O)[O-])c3s2)cc1 | > 50000 |
| C[C@H]1COC2(CCN(c3nc(=O)c4cc(C(F)(F)F)cc([N+](=O)[O-])c4s3)CC2)O1 | > 6250 |
| O=c1nc(N2CCC(c3ccccc3)CC2)sc2c([N+](=O)[O-])cc(C(F)(F)F)cc12 | > 12500 |

###

Reported Stability values follow for various compounds
tested on: Liver microsomes; test: Metabolic stability in human liver microsomes; type: ADME, Microsome

| Compound | Target System | Value Unit | Stability |
| --- | --- | --- | --- |
| Cc1ccc(CNc2nc(=O)c3cc(C(F)(F)F)cc([N+](=O)[O-])c3s2)n1C | Liver microsomes | % | 28 |
| O=c1nc(N2CCC(c3ccccc3)CC2)sc2c([N+](=O)[O-])cc(C(F)(F)F)cc12 | Liver microsomes | % | 120 |
| COC(=O)C1CN(c2nc(=O)c3cc(C(F)(F)F)cc([N+](=O)[O-])c3s2)CCC12OC[C@H](C)O2 (stereo partly specified) | Liver microsomes | % | 81 |
| O=c1nc(N2CCN(c3nccs3)CC2)sc2c([N+](=O)[O-])cc(C(F)(F)F)cc12 | Liver microsomes | % | 42 |
| CN(c1nc(=O)c2cc(C(F)(F)F)cc([N+](=O)[O-])c2s1)[C@H]1CCN(Cc2ccccc2)C1 | Liver microsomes | % | 6 |
| C[C@H]1COC2(CCN(c3nc(=O)c4cc(C(F)(F)F)cc([N+](=O)[O-])c4s3)CC2)O1 | Liver microsomes | % | 98 |
| CN(C)c1ccc(CN(C)c2nc(=O)c3cc(C(F)(F)F)cc([N+](=O)[O-])c3s2)cc1 | Liver microsomes | % | 6 |
| O=c1nc(NCc2ccc3c(c2)OCCO3)sc2c([N+](=O)[O-])cc(C(F)(F)F)cc12 | Liver microsomes | % | 43 |
| O=c1nc(N2CCC(F)(F)CC2)sc2c([N+](=O)[O-])cc(C(F)(F)F)cc12 | Liver microsomes | % | 61 |
| CCCOCC1COC2(CCN(c3nc(=O)c4cc(C(F)(F)F)cc([N+](=O)[O-])c4s3)CC2)O1 (stereo unspecified) | Liver microsomes | % | 6 |
| CN(C(=O)CN1CCN(c2nc(=O)c3cc(C(F)(F)F)cc([N+](=O)[O-])c3s2)CC1)c1ccccc1 | Liver microsomes | % | 13 |

###

tested on: Plasma; assay: Metabolic stability in human plasma; format: ADME, cell-free
Quick reference for Stability among some compounds
Measurement Label: Stability (%)

| Item Smiles | Reported Measurement |
| --- | --- |
| CN(c1nc(=O)c2cc(C(F)(F)F)cc([N+](=O)[O-])c2s1)[C@H]1CCN(Cc2ccccc2)C1 | 92 |
| C[C@H]1COC2(CCN(c3nc(=O)c4cc(C(F)(F)F)cc([N+](=O)[O-])c4s3)CC2)O1 | 107 |
| COC(=O)[C@@H]1OC2(CCN(c3nc(=O)c4cc(C(F)(F)F)cc([N+](=O)[O-])c4s3)CC2)O[C@H]1c1ccccc1 | 90 |
| Cc1ccc(CNc2nc(=O)c3cc(C(F)(F)F)cc([N+](=O)[O-])c3s2)n1C | 108 |

###

experiment: Chemical stability in buffer; format: physicochemical

| Compound | Value Unit | Stability |
| --- | --- | --- |
| CCCOCC1COC2(CCN(c3nc(=O)c4cc(C(F)(F)F)cc([N+](=O)[O-])c4s3)CC2)O1 (configuration not stated) | % | 99 |
| O=c1nc(N2CCC(c3ccccc3)CC2)sc2c([N+](=O)[O-])cc(C(F)(F)F)cc12 | % | 82 |
| COC(=O)C1CN(c2nc(=O)c3cc(C(F)(F)F)cc([N+](=O)[O-])c3s2)CCC12OC[C@H](C)O2 (some centres not stated) | % | 98 |
| C[C@H]1COC2(CCN(c3nc(=O)c4cc(C(F)(F)F)cc([N+](=O)[O-])c4s3)CC2)O1 [BTZ-043] | % | 98 |
| COC(=O)[C@@H]1OC2(CCN(c3nc(=O)c4cc(C(F)(F)F)cc([N+](=O)[O-])c4s3)CC2)O[C@H]1c1ccccc1 | % | 82 |
| O=c1nc(N2CCN(c3nccs3)CC2)sc2c([N+](=O)[O-])cc(C(F)(F)F)cc12 | % | 98 |
| O=c1nc(NCc2ccc3c(c2)OCCO3)sc2c([N+](=O)[O-])cc(C(F)(F)F)cc12 | % | 91 |
| Cc1ccc(CNc2nc(=O)c3cc(C(F)(F)F)cc([N+](=O)[O-])c3s2)n1C | % | 14 |
| CN(C)c1ccc(CN(C)c2nc(=O)c3cc(C(F)(F)F)cc([N+](=O)[O-])c3s2)cc1 | % | 95 |
| CN(c1nc(=O)c2cc(C(F)(F)F)cc([N+](=O)[O-])c2s1)[C@H]1CCN(Cc2ccccc2)C1 | % | 96 |
| CN(C(=O)CN1CCN(c2nc(=O)c3cc(C(F)(F)F)cc([N+](=O)[O-])c3s2)CC1)c1ccccc1 | % | 78 |
| O=c1nc(N2CCC(F)(F)CC2)sc2c([N+](=O)[O-])cc(C(F)(F)F)cc12 | % | 101 |
